Origin of values: patent US20250340591A1

ECmax; SRE-luciferase reporter for assorted binders
Target: T1, GPR39 (G protein coupled receptor 39) (UniProt O43194 1-453, limits assumed)
T1 sequence (looked up): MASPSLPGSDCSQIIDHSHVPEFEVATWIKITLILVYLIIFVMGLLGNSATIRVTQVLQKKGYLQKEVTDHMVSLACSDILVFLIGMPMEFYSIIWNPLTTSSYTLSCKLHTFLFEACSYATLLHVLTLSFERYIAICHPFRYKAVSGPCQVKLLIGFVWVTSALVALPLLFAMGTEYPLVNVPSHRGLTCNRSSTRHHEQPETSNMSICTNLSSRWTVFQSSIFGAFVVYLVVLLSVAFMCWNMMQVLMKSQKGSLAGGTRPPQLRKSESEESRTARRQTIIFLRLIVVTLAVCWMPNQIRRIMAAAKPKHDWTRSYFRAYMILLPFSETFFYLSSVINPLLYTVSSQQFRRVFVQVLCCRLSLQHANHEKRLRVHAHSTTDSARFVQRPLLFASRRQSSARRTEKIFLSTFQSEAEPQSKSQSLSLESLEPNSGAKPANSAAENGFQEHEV
Assay: cell-based or functional assay
Square brackets hold non-standard residues; d marks the D form. Ends that are not written are not given here. * marks the point of attachment. 2‑phenyl = 2-phenyl substituent on the histidine imidazole (2-phenyl-1H-imidazol-4-yl), c1ccc(*)cc1; 1‑(4-tert-butyl)phenyl = CC(C)(C)c1ccc(*)cc1; dPhe(4-Me) = Cc1ccc(C[C@@H](N)C(=O)O)cc1; Trt = c1ccc(C(c2ccccc2)(c2ccccc2)*)cc1; Benzhydryl = c1ccc(C(c2ccccc2)*)cc1; Myristoyl = CCCCCCCCCCCCCC(=O)*; Octanoyl = CCCCCCCC(=O)*

Sample records with ECmax; SRE-luciferase reporter:
H(Trt)K(Myristoyl)FY-OH [HKFY-26] | 19.8 -fold induction over basal
H(1‑(4-tert-butyl)phenyl)K(Octanoyl)[dPhe(4-Me)]Y-OH [HKFY-61] | 9.88 -fold induction over basal
H(2‑phenyl)K(Octanoyl)[dPhe(4-Me)]Y-OH [HKFY-57] | 8.5 -fold induction over basal
H(Trt)K(Octanoyl)FYSHQQARF (not fully specified; printed as His(trt)-Lys(caprylic)-Phe-Tyr-Ser-His-Gln-Gln-Ala-Arg-Phe) [HKFY-40] | 13.4 -fold induction over basal
[dH](Benzhydryl)K(Octanoyl)[dPhe(4-Me)]Y-OH [HKFY-62] | 28.1 -fold induction over basal

Please examine the following record next.
What ECmax; SRE-luciferase reporter value was documented for this binder, H(Trt)K(Octanoyl)YF-OH [HKFY-47] ?
13 -fold induction over basal
